As shown below, each of these molecules has a reported IC (TGI) value.
System: PC-3
procedure-details: cells
Type: cell-based
assay-setup: Homo sapiens, PC-3; 48 h, average ± SEM; read-out: TGI PC-3
metric-name: IC (TGI) (µM)

molecule: O=C(Nc1ccc([Se][Se]c2ccc(NC(=O)c3ccco3)cc2)cc1)c1ccco1 [I.1h]
readout-unit: µM
value-operator: =
reported-value: 27.6
//
molecule: COP(=O)(Nc1ccc([Se][Se]c2ccc(NP(=O)(OC)OC)cc2)cc1)OC [II.1b]
readout-unit: µM
value-operator: =
reported-value: 46.9
//
molecule: CCOP(=O)(Nc1ccc([Se][Se]c2ccc(NP(=O)(OCC)OCC)cc2)cc1)OCC [II.1d]
readout-unit: µM
value-operator: =
reported-value: 8.6
//
molecule: N#C[Se]c1ccc(NC(=O)c2ccc([N+](=O)[O-])cc2)cc1 [I.2e]
readout-unit: µM
value-operator: >
reported-value: 100
//
molecule: O=C(Nc1ccc([Se][Se]c2ccc(NC(=O)c3ccc(Cl)cc3)cc2)cc1)c1ccc(Cl)cc1 [I.1b]
readout-unit: µM
value-operator: >
reported-value: 100
//
molecule: N#C[Se]c1ccc(NC(=O)c2ccc(Cl)cc2)cc1 [I.2b]
readout-unit: µM
value-operator: >
reported-value: 100

----------
As shown below, each of these compounds has a reported activity at 10 µM value.
Test system: MCF-7
procedure-details: cells
assay-setup: Homo sapiens, MCF7, 48 h, read-out: Cell growth (%) MCF-7
metric-name: activity at 10 µM (%)

test-smiles: O=P(Nc1ccc([Se][Se]c2ccc(NP(=O)(Oc3ccccc3)Oc3ccccc3)cc2)cc1)(Oc1ccccc1)Oc1ccccc1
tested-on: MCF-7
reported-value: 94
//
test-smiles: O=C(Nc1ccc([Se][Se]c2ccc(NC(=O)C34CC5CC(CC(C5)C3)C4)cc2)cc1)C12CC3CC(CC(C3)C1)C2
tested-on: MCF-7
reported-value: 88
//
test-smiles: N#C[Se]c1ccc(NC(=O)c2ccco2)cc1
tested-on: MCF-7
reported-value: 41.6
//
test-smiles: N#C[Se]c1ccc(NC(=O)c2cccc3ccccc23)cc1
tested-on: MCF-7
reported-value: 101
//
test-smiles: O=C(Nc1ccc([Se][Se]c2ccc(NC(=O)c3ccc(Cl)cc3)cc2)cc1)c1ccc(Cl)cc1
tested-on: MCF-7
reported-value: 19.8
//
test-smiles: COP(=O)(Nc1ccc([Se][Se]c2ccc(NP(=O)(OC)OC)cc2)cc1)OC
tested-on: MCF-7
reported-value: -13.9
//
test-smiles: N#C[Se]c1ccc(NP(=O)(Oc2ccccc2)Oc2ccccc2)cc1
tested-on: MCF-7
reported-value: 114
//
test-smiles: O=C(Nc1ccc([Se][Se]c2ccc(NC(=O)c3cccs3)cc2)cc1)c1cccs1
tested-on: MCF-7
reported-value: 104
//
test-smiles: Cc1ccc(C(=O)Nc2ccc([Se][Se]c3ccc(NC(=O)c4ccc(C)cc4)cc3)cc2)cc1
tested-on: MCF-7
reported-value: 57.5
//
test-smiles: O=C(Nc1ccc([Se][Se]c2ccc(NC(=O)c3ccccc3)cc2)cc1)c1ccccc1
tested-on: MCF-7
reported-value: 79.7
//
test-smiles: N#Cc1ccc(C(=O)Nc2ccc([Se][Se]c3ccc(NC(=O)c4ccc(C#N)cc4)cc3)cc2)cc1
tested-on: MCF-7
reported-value: 79.1
//
test-smiles: N#C[Se]c1ccc(NC(=O)c2ccc(Cl)cc2)cc1
tested-on: MCF-7
reported-value: 33.5

----------
Tested on: CCRF-CEM
procedure-details: cells
assay-setup: Homo sapiens, 48 h, read-out: TGI CCRF-CEM

compound: O=C(Nc1ccc([Se][Se]c2ccc(NC(=O)c3ccc(Cl)cc3)cc2)cc1)c1ccc(Cl)cc1 [I.1b]
value-operator: =
IC (TGI), µM: 72.6
--
compound: CCOP(=O)(Nc1ccc([Se][Se]c2ccc(NP(=O)(OCC)OCC)cc2)cc1)OCC [II.1d]
value-operator: =
IC (TGI), µM: 1.7
--
compound: N#C[Se]c1ccc(NC(=O)c2ccc(C(F)(F)F)cc2)cc1 [I.2f]
value-operator: >
IC (TGI), µM: 100
--
compound: N#C[Se]c1ccc(NC(=O)c2ccc(Cl)cc2)cc1 [I.2b]
value-operator: >
IC (TGI), µM: 100
--
compound: O=C(Nc1ccc([Se][Se]c2ccc(NC(=O)c3ccc([N+](=O)[O-])cc3)cc2)cc1)c1ccc([N+](=O)[O-])cc1 [I.1e]
value-operator: =
IC (TGI), µM: 33.8
--
compound: O=C(Nc1ccc([Se][Se]c2ccc(NC(=O)c3ccco3)cc2)cc1)c1ccco1 [I.1h]
value-operator: =
IC (TGI), µM: 36.1
--
compound: O=C(Nc1ccc([Se][Se]c2ccc(NC(=O)c3ccc(C(F)(F)F)cc3)cc2)cc1)c1ccc(C(F)(F)F)cc1 [I.1f]
value-operator: =
IC (TGI), µM: 31.7
--
compound: COP(=O)(Nc1ccc([Se]C#N)cc1)OC [II.2b]
value-operator: =
IC (TGI), µM: 3.2
--
compound: COP(=O)(Nc1ccc([Se][Se]c2ccc(NP(=O)(OC)OC)cc2)cc1)OC [II.1b]
value-operator: =
IC (TGI), µM: 3.9
--
compound: CCOP(=O)(Nc1ccc([Se]C#N)cc1)OCC [II.2d]
value-operator: =
IC (TGI), µM: 0.5
--
compound: N#C[Se]c1ccc(NC(=O)c2ccco2)cc1 [I.2h]
value-operator: >
IC (TGI), µM: 100

----------
procedure-details: MTT cytotoxicity in nonmalignant mammary gland derived cells
Assay type: cell-based
assay-setup: human

test-smiles: N#C[Se]c1ccc(NC(=O)c2ccc(Cl)cc2)cc1
LC50 (50% lethal concentration) at 48 h: > 100 µM
//
test-smiles: O=C(Nc1ccc([Se][Se]c2ccc(NC(=O)c3ccc(Cl)cc3)cc2)cc1)c1ccc(Cl)cc1
LC50 (50% lethal concentration) at 48 h: > 100 µM
//
test-smiles: N#C[Se]c1ccc(NC(=O)c2ccc([N+](=O)[O-])cc2)cc1
LC50 (50% lethal concentration) at 48 h: > 100 µM
